The measurements presented in this section are drawn from PubChem BioAssay AID797.

# target_desc: Serine/threonine-protein kinase D1 (Homo sapiens) (UniProt Q15139)
# Sequence (Q15139 whole entry, looked up): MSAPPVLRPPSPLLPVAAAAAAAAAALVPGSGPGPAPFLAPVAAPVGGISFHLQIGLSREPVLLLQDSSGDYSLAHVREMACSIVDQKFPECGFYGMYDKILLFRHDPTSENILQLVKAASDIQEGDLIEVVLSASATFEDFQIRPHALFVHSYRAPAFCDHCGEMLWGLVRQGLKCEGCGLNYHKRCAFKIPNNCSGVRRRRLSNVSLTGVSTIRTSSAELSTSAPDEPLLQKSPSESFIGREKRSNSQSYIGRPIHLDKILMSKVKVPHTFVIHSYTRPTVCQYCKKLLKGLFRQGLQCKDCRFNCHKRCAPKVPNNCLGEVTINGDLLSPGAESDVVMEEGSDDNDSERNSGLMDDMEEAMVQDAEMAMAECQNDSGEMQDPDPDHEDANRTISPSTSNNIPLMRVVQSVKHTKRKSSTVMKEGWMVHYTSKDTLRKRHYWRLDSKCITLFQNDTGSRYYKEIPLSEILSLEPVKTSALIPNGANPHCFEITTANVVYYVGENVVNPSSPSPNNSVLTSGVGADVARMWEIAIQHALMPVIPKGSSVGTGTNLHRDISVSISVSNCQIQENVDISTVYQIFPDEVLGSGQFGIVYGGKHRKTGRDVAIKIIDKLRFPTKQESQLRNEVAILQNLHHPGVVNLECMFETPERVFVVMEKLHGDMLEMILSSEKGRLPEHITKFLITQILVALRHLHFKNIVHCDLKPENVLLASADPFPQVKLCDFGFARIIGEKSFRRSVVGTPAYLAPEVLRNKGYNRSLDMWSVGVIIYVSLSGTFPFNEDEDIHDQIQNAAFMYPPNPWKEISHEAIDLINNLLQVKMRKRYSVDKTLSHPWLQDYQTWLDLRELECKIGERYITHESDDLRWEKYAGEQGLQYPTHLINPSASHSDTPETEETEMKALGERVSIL
# experimental_details: inhibitors of human PKD1 kinase, biochemical, fluorescence polarization (AID 797)
# condition_summary: PKD1 kinase fluorescence polarization assay; concentration not given here
Among all 200,000 compounds or so, about 110 (0.055%) were called active. No stated cut-off is given here; in the data, active means inhibition above about 50%; inactive means the rest. The full list was thinned out, with actives kept by preference.
Parameter call: string, one of active, inactive

These solved cases illustrate the format of a correct answer.
compound	target_desc	class_label
Cc1ccc(NC(=S)N(CCCN2CCC(C)CC2)Cc2ccco2)cc1	Serine/threonine-protein kinase D1 (Homo sapiens) (UniProt Q15139)	inactive
C#CCOCCOCCOCCNc1nc(N2CCN(C(=O)[C@H](CCCCN)n3cc([C@@H](N)C(C)CC)nn3)CC2)nc(N2CCN(C(=O)[C@H](Cc3ccc(O)cc3)n3cc([C@@H](N)C(C)CC)nn3)CC2)n1 (some centres undefined)	Serine/threonine-protein kinase D1 (Homo sapiens) (UniProt Q15139)	inactive
COC(=O)c1ccccc1SC1CC(=O)N(c2cccc(C)c2)C1=O (centres undefined)	Serine/threonine-protein kinase D1 (Homo sapiens) (UniProt Q15139)	inactive
Cc1c(C(=O)NCCN2C(=O)S/C(=C\c3cccs3)C2=O)cccc1[N+](=O)[O-]	Serine/threonine-protein kinase D1 (Homo sapiens) (UniProt Q15139)	inactive

Entry Cc1cc(/C=C(/C#N)C(=O)Nc2ccc(Cl)cc2)c(C)n1-c1cccnc1 : call = ?
inactive

Entry OCCCC1CCCCN1Cc1nc(Cc2ccccc2Cl)no1 (centres undefined) : call = ?
inactive

Entry Cc1ccc2nsnc2c1NC(=O)c1ccccc1[N+](=O)[O-] : call = ?
inactive
